Ref: patent US20220380446A1

Biological target: human α-synuclein pre-formed fibrils (Human Alpha Synuclein Pre-formed Fibrils Type II, StressMarq SPR-317) (human, UniProt P37840 1-140)
Assay: sandwich ELISA, antibody coated, α-syn PFF added, 7B7-biotin detection
Observed Property: pEC50
When answering, recall that pEC50 equals minus log10 of the concentration in mol/L, and write that number alone.

Query string: Tell me the measured pEC50 of hu1E4(V3_VL2) (antibody, human IgG1, V domains shown, Monospecific; human IgG1 and kappa constant regions) VH: QVQLVQSGAEVKKPGASVKVSCKASGYAFTNYLIEWVKQAPGQGLEWIGVINPGSGGTNYNEKFKGKVTLTADKSISTAYMELSRLRSDDTAVYYCASGNYDTYWGQGTLVTVSS VL: DVVMTQTPLSLSVTPGQPASISCRSSQSLVHSNGNTYLHWYLQKPGQSPQLLIYKVSNRFSGVPDRFSGSGSGTDFTLKISRVEAEDVGVYYCSQSTHVPRTFGQGTKLEIK , please.
Result string: 9.24

Query string: Consider the binder chimeric 1E4 antibody (antibody, V domains shown, VH and VL of mouse 1E4 with human IgG1 and kappa constant regions; also called ch1E4; Ch1E4) VH: QVQLQQSGAELVRPGTSVKVSCKASGYAFTNYLIEWVKQRPGQGLEWIGVINPGSGGTNYNEKFKGKATLTADKSSSTAYMQLSSLTSDDSAVYFCASGNYDTYWGQGTLVTVSA VL: DVVMTQTPLSLPVSLGDQASISCRSSQSLVHSNGNTYLHWYLQKPGQSPKLLIYKVSNRFSGVPDRFSGSGSGTDFTLKISRVEAEDLGVYFCSQSTHVPRTFGGGTKLEIK and give its measured pEC50.
Result string: 9.06

Query string: What value of pEC50 has been recorded for this entry: hu1E4(V7_VL2) (antibody, human IgG1, V domains shown, Monospecific; human IgG1 and kappa constant regions) VH: QVQLVQSGAEVKKPGASVKVSCKASGYAFTNYLIEWVKQAPGQGLEWMGVINPGSGGTNYNEKFKGKATLTADKSISTAYMELSRLRSDDTAVYYCASGNYDTYWGQGTLVTVSS VL: DVVMTQTPLSLSVTPGQPASISCRSSQSLVHSNGNTYLHWYLQKPGQSPQLLIYKVSNRFSGVPDRFSGSGSGTDFTLKISRVEAEDVGVYYCSQSTHVPRTFGQGTKLEIK
Result string: 9.47

Query string: What pEC50 value was documented for this binder, hu1E4(V2_VL2) (antibody, human IgG1, V domains shown, Monospecific; human IgG1 and kappa constant regions) VH: QVQLVQSGAEVKKPGASVKVSCKASGYTFTNYLIEWVRQAPGQGLEWIGVINPGSGGTNYNEKFKGKVTLTADKSISTAYMELSRLRSDDTAVYYCASGNYDTYWGQGTLVTVSS VL: DVVMTQTPLSLSVTPGQPASISCRSSQSLVHSNGNTYLHWYLQKPGQSPQLLIYKVSNRFSGVPDRFSGSGSGTDFTLKISRVEAEDVGVYYCSQSTHVPRTFGQGTKLEIK ?
Result string: 9.24

Query string: So what's the measured pEC50 for this one? hu1E4(V1_VL1) (antibody, human IgG1, V domains shown, Monospecific; fused to human IgG1 and kappa constant regions; also called humanized 1E4(V1_VL1); hu1E4(Ver.1_VL1)) VH: QVQLVQSGAEVKKPGASVKVSCKASGYTFTNYLIEWVRQAPGQGLEWMGVINPGSGGTNYNEKFKGRVTMTRDTSISTAYMELSRLRSDDTAVYYCASGNYDTYWGQGTLVTVSS VL: DIVMTQTPLSLSVTPGQPASISCRSSQSLVHSNGNTYLHWYLQKPGQSPQLLIYKVSNRFSGVPDRFSGSGSGTDFTLKISRVEAEDVGVYYCSQSTHVPRTFGQGTKLEIK
Result string: 9.21
